subjectOfTest: T1, human soluble ULBP6 haplotype 02 (hULBP6_02) (human, UniProt Q5VY80 26-218)
T1 construct: also called sULBP6_02
T1 chain: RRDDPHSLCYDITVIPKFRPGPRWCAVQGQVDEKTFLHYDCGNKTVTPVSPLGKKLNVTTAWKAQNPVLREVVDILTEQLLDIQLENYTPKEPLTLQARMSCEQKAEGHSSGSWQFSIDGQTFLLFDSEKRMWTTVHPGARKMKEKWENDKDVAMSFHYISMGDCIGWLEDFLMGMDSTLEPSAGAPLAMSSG
assayProcedure: SPR (BIACORE 8K, 37 C); antibody captured on Protein A, soluble ULBP injected;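 also: ligand injected as threefold dilution series in HBS-P (highest 10 or 50 nM), reference-cell and buffer-subtracted sensorgrams fitted with a 1:1 Langmuir model for on and off rates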
experimentalEndpoint: koff (s⁻¹)
Give the number; s⁻¹ is assumed, so skip it.

Please report the recorded koff for humanized 7B3 (h7B3), Fc version not stated (antibody, V domains shown, Recombinant humanized antibody, hIgG1 backbone with kappa light chain; also called hu7B3; PUR3922) VH: EVQLVESGGGLVQPGGSLRLSCAASGFTFSTYGFHWVRQAPGKGLEWVAYISSNSGTIDYADTVKGRFTISRDNAKNSLYLQMNSLRAEDTAVYYCARQGYGFDNWGQGTTVTVSS VL: DIQLTQSPSSLSASVGDRVTITCSASSRVSYMNWYQQKPGKSPKIWVYGISNLASGVPSRFSGSGSGTDFTFTISSLQPEDIATYYCQQRSSHPLTFGGGTKVEIK .
0.000379
